Provenance of the data: the supplement of paper PMC4022240

biological target: anti-H3K4me3 antibody ab8580; assay: peptide microarray binding signal (635 nm), min-max normalized on array (fraction of array maximum); higher = stronger binding; conditions: peptide region: Unmod H2A variant; binder concentration: 1:2,000 dilution
I'd appreciate it if you could supply peptide microarray binding signal values for the items below.
Give bare numbers.

See these solved cases before continuing.
- AGLQFPVGRVHRL [Unmod H2A variant A G L Q F P V G R V H R L]: 0.00176
- AGLQFPVGRIHRL [Unmod H2A variant A G L Q F P V G R I H R L]: 0.00361
- LNKLLGKVTIAQG [Unmod H2A variant L N K L L G K V T I A Q G]: 0.00715

Required: peptide microarray binding signal, one value per binder below.
1. KGNYAERIGAGAP [Unmod H2A variant K G N Y A E R I G A G A P]
2. QGGKARAKAKSRS [Unmod H2A variant Q G G K A R A K A K S R S]
3. RAKAKSRSSRAGL [Unmod H2A variant R A K A K S R S S R A G L]
4. RAKAKTRSSRAGL [Unmod H2A variant R A K A K T R S S R A G L]
5. RNDEELNKLLGKV [Unmod H2A variant R N D E E L N K L L G K V]
6. KGNYAERVGAGAP [Unmod H2A variant K G N Y A E R V G A G A P]

Result:
0.00668
0.00164
0.000868
0.00328
0.00181
0.00546
